Response overview
Target: T1, Rhesus macaque CD4-HIS (Acro Biosystems, Cat. CD4-C52H7) (rhesus macaque, UniProt P16003 26-390)
T1 construct: Bought reagent; also called Rhesus CD4; rhesus CD4-HIS; not shown: His tag
T1 sequence (P16003 26-390 limits assumed): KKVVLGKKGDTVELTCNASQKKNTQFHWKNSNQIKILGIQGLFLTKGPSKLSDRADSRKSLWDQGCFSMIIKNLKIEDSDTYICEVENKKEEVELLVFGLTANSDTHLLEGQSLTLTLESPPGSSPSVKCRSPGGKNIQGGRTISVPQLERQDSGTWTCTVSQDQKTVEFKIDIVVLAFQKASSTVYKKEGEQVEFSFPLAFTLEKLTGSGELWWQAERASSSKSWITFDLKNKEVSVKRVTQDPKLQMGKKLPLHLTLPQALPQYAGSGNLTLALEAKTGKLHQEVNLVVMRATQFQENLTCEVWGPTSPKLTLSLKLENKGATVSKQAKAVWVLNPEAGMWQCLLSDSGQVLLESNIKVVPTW
Assay: BLI Octet, mAb on anti-mouse Fc sensor, rhesus CD4-HIS 25-100 nM, 1:1 global fit;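 also: purified antibodies captured at 10 µg/mL, rhesus CD4 analyte run as a three-concentration serial dilution, irrelevant antibody as reference control, one kinetic constant set per antibody from global fitting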

binder	Response
75110_01A06A (antibody, V domains shown, Tested as antibody purified from AlivaMab Mouse hybridoma supernatant (captured by anti-mouse IgG Fc)) VH: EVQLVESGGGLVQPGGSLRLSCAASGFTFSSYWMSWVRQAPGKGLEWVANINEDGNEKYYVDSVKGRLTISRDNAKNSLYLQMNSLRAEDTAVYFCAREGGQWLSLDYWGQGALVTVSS VL: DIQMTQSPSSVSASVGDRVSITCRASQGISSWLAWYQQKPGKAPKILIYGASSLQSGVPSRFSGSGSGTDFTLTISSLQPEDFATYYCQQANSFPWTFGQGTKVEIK	0.39
75110_02I16A (antibody, V domains shown, Tested as antibody purified from AlivaMab Mouse hybridoma supernatant (captured by anti-mouse IgG Fc)) VH: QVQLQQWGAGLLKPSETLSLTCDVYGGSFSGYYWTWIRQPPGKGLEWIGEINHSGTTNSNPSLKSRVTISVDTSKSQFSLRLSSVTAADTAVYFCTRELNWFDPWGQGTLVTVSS VL: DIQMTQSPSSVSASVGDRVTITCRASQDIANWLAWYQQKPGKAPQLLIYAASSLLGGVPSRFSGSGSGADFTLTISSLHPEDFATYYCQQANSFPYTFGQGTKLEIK	0.14
